target: A*2902 (Homo sapiens, UniProt P04439, A270S/D101N/D185E/E176V/E277Q/E87Q/F33T/G231S/H175R/I121M/I218V/I322F/K168Q/L300P/L318F/M331R/P208A/P217A/Q86L/T323A/T345S/V100A/V358M); experiment: biochemical; assay type: binding
pIC50: −log10 of the molar value. No end group written: not given here.
// reported pIC50 per item

1. CQDKILEHY [Peptide 1580.23]: < 4.70

Look up pIC50 of MWKFDSRLAL [Peptide 1605.17] and report it.
< 4.70

Give the reported value of pIC50 for this record: EISNYTDTIY [Peptide 9015.0157]
< 4.70

Cited source: patent US9340577B2
